Measured Dmax accompanies every entry in the list below.
Target: B-RAF V600E (Homo sapiens, UniProt P15056, V600E)
Construct: expressed in transfected cells; host or cells: T-Rex 293 cells (Invitrogen #R71007)
Sequence (P15056 whole entry V600E): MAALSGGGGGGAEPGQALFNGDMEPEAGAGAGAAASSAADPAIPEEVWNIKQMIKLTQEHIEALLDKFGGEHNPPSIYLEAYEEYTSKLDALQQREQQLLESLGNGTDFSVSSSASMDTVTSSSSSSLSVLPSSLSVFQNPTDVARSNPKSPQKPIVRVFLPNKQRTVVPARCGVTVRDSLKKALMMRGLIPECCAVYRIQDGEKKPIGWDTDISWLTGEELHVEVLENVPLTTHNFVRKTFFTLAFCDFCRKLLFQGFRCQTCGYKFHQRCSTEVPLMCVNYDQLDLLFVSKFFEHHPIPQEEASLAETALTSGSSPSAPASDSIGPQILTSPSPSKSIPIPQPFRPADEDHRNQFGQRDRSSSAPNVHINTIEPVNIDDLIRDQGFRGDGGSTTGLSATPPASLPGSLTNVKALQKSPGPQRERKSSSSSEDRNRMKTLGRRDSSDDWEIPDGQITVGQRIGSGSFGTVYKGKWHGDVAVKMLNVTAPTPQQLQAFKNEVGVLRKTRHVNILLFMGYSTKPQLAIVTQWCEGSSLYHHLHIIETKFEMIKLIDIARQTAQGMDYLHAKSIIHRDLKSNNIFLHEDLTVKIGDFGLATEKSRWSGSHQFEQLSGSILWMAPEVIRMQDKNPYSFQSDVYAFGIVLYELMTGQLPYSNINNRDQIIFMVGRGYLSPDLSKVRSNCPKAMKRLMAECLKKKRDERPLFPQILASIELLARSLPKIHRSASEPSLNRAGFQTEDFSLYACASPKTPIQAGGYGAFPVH
Assay: Target protein degradation, assay C: T-Rex 293 cells, HA-BRAF_V600E, 384 well format
Assay type: cell-based
Details: T-REx-293, Assay C, T-Rex 293 HA-BRAF_V600E cells, 24 hours, Examples 83-269

Some compounds with known Dmax results, for comparison:
{"compound": "N#Cc1c(NS(=O)(=O)N2CC[C@@H](F)C2)ccc(F)c1Oc1ccc2ncn(-c3ccc(N4CCC(CN5CCC6(CCC(c7ccc8c(c7)CN([C@H]7CCC(=O)NC7=O)C8=O)CC6)CC5)CC4)cc3)c(=O)c2c1 [Example 262]", "Dmax": "≥ 70%"}
{"compound": "N#Cc1c(NS(=O)(=O)N2CC[C@@H](F)C2)ccc(F)c1Oc1ccc2ncn(-c3ccc(N4CC5(CC(CN6CCN(c7ccc8c(c7)CN([C@H]7CCC(=O)NC7=O)C8=O)CC6)C5)C4)cc3)c(=O)c2c1 [Example 191]", "Dmax": "35 to 70%"}
{"compound": "N#Cc1c(NS(=O)(=O)N2CC[C@@H](F)C2)ccc(F)c1Oc1ccc2ncn(-c3ccc(N4CCC(CN5CCC6(CC5)CCN(c5ccc7c(c5)CN([C@H]5CCC(=O)NC5=O)C7=O)CC6)CC4)cc3)c(=O)c2c1 [Example 228]", "Dmax": "35 to 70%"}
{"compound": "N#Cc1c(NS(=O)(=O)N2CC[C@@H](F)C2)ccc(F)c1Oc1ccc2ncn(-c3ccc(N4CC(CN5CCN(C6CCN(c7ccc8c(c7)C(=O)N(C7CCC(=O)NC7=O)C8=O)CC6)CC5)C4)nc3)c(=O)c2c1 (stereo partly drawn) [Example 170]", "Dmax": "≤ 35%"}
{"compound": "N#Cc1c(NS(=O)(=O)N2CC[C@@H](F)C2)ccc(F)c1Oc1ccc2ncn(-c3ccc(N4CCN(CC5CCN(c6ccc7c(c6)CN(C6CCC(=O)NC6=O)C7=O)CC5)CC4)c(F)c3)c(=O)c2c1 (stereo partly drawn) [Example 86]", "Dmax": "35 to 70%"}

Would you mind telling me what Dmax value was observed for N#Cc1c(NS(=O)(=O)N2CCC(F)C2)ccc(F)c1Oc1ccc2ncn(-c3ccc(N4CCN(CC5CN(c6ccc7c(c6)CN(C6CCC(=O)NC6=O)C7=O)C5)CC4)cc3)c(=O)c2c1 (stereo not drawn) [Example 194] ?
≤ 35%

Same read-out for N#Cc1c(NS(=O)(=O)N2CC[C@@H](F)C2)ccc(F)c1Oc1ccc2ncn(-c3cnc(N4CCN(CC5CCN(c6ccc7c(c6)CN(C6CCC(=O)NC6=O)C7=O)CC5)CC4)cn3)c(=O)c2c1 (stereo partly drawn) [Example 89] ?
35 to 70%

Same read-out for CCN(C)S(=O)(=O)Nc1ccc(F)c(Oc2ccc3ncn(-c4ccc(N5CCN(CC6CCN(c7ccc8c(c7)CN(C7CCC(=O)NC7=O)C8=O)CC6)CC5)cc4)c(=O)c3c2)c1C#N (stereo not drawn) [Example 109] ?
35 to 70%

Same read-out for N#Cc1c(NS(=O)(=O)N2CC[C@@H](F)C2)ccc(F)c1Oc1ccc2ncn(-c3cnc(N4CCN(c5ccc6c(c5)CN(C5CCC(=O)NC5=O)C6=O)CC4)nc3)c(=O)c2c1 (stereo partly drawn) [Example 127] ?
35 to 70%

---

Target: B-RAF V600E (Homo sapiens, UniProt P15056, V600E)
Construct: expressed in transfected cells; host or cells: T-Rex 293 cells (Invitrogen #R71007)
Experiment: Target protein degradation, assay C: T-Rex 293 cells, HA-BRAF_V600E, 384 well format
Type: cell-based
Conditions: Assay C, T-Rex 293 HA-BRAF_V600E cells, 24 hours, Examples 83-269
value_type: DC50

Some compounds with known DC50 results, for comparison:
{"compound": "N#Cc1c(NS(=O)(=O)N2CC[C@@H](F)C2)ccc(F)c1Oc1ccc2ncn(C3COC4(CCN(C(=O)CC5(O)CCN(c6ccc7c(c6)CN([C@H]6CCC(=O)NC6=O)C7=O)CC5)CC4)C3)c(=O)c2c1 (stereo partly shown)", "value_type": "DC50", "val": "50 to 500 nM"}
{"compound": "N#Cc1c(NS(=O)(=O)N2CC[C@@H](F)C2)ccc(F)c1Oc1ccc2ncn(-c3ccc(N4CCC(CN5CCN(CC6CCN(c7ccc8c(c7)CN([C@@H]7CCC(=O)NC7=O)C8=O)CC6)CC5)CC4)cc3)c(=O)c2c1", "value_type": "DC50", "val": "50 to 500 nM"}
{"compound": "Cc1c(N2CCC(CN3CCN(c4ccc(-n5cnc6ccc(Oc7c(F)ccc(NS(=O)(=O)N8CC[C@@H](F)C8)c7C#N)cc6c5=O)cc4)CC3)CC2)ccc2c1CN(C1CCC(=O)NC1=O)C2=O (stereo partly shown) [Example 104]", "value_type": "DC50", "val": "5 to 50 nM"}

Turning to the following compound.
Would you mind telling me what DC50 value was observed for N#Cc1c(NS(=O)(=O)N2CC[C@@H](F)C2)ccc(F)c1Oc1ccc2ncn(-c3ccc(N4CC(CN5CCN(C6CCN(c7ccc8c(c7)C(=O)N(C7CCC(=O)NC7=O)C8=O)CC6)CC5)C4)nc3)c(=O)c2c1 (stereo partly shown) ?
5 to 50 nM

---

Measured Dmax accompanies every entry in the list below.
Biological target: B-RAF V600E (Homo sapiens, UniProt P15056, V600E)
Construct: expressed in transfected cells; host or cells: T-Rex 293 cells (Invitrogen #R71007)
Assay: Target protein degradation, assay C: T-Rex 293 cells, HA-BRAF_V600E, 384 well format
Assay type: cell-based
Conditions: T-REx-293, Assay C, T-Rex 293 HA-BRAF_V600E cells, 24 hours, Examples 83-269

Some compounds with known Dmax results, for comparison:
{"compound": "CN(c1ccc2c(c1)CN([C@H]1CCC(=O)NC1=O)C2=O)[C@H]1CC[C@@H](N2CCN(c3ccc(-n4cnc5ccc(Oc6c(F)ccc(NS(=O)(=O)N7CC[C@@H](F)C7)c6C#N)cc5c4=O)cc3)CC2)CC1", "Dmax": "35 to 70%"}
{"compound": "N#Cc1c(NS(=O)(=O)N2CC[C@@H](F)C2)ccc(F)c1Oc1ccc2ncn(-c3ccc(C4CCN(CC5CC6(CCN(c7ccc8c(c7)CN([C@H]7CCC(=O)NC7=O)C8=O)CC6)C5)C4)cc3)c(=O)c2c1 (stereo partly drawn)", "Dmax": "≥ 70%"}
{"compound": "N#Cc1c(NS(=O)(=O)N2CC[C@@H](F)C2)ccc(F)c1Oc1ccc2ncn(-c3ccc(N4CCN(CC5CCN(c6ccc(N7CCC(=O)NC7=O)cc6)CC5)CC4)cc3)c(=O)c2c1", "Dmax": "35 to 70%"}
{"compound": "N#Cc1c(NS(=O)(=O)N2CC[C@@H](F)C2)ccc(F)c1Oc1ccc2ncn(-c3ccc(N4CCC5(CCN(CC6CCN(c7ccc8c(c7)CN([C@@H]7CCC(=O)NC7=O)C8=O)CC6)CC5)CC4)cc3)c(=O)c2c1", "Dmax": "35 to 70%"}
{"compound": "C[C@H]1CC(CN2CCC(c3ccc4c(c3)CN(C3CCC(=O)NC3=O)C4=O)CC2)CCN1c1ccc(-n2cnc3ccc(Oc4c(F)ccc(NS(=O)(=O)N5CC[C@@H](F)C5)c4C#N)cc3c2=O)cc1 (stereo partly drawn)", "Dmax": "35 to 70%"}
{"compound": "N#Cc1c(NS(=O)(=O)N2CC[C@@H](F)C2)ccc(F)c1Oc1ccc2ncn(-c3ccc(N4CCN(CCN5CCN(c6ccc(C7CCC(=O)NC7=O)cc6F)CC5)CC4)cc3)c(=O)c2c1 (stereo partly drawn)", "Dmax": "35 to 70%"}
{"compound": "C[C@H]1CN(CC2CCN(c3ccc4c(c3F)CN([C@H]3CCC(=O)NC3=O)C4=O)CC2)CCN1c1ccc(-n2cnc3ccc(Oc4c(F)ccc(NS(=O)(=O)N5CC[C@@H](F)C5)c4C#N)cc3c2=O)cc1", "Dmax": "35 to 70%"}
{"compound": "N#Cc1c(NS(=O)(=O)N2CC[C@@H](F)C2)ccc(F)c1Oc1ccc2ncn(-c3ccc(N4CC(CC5CN(c6ccc7c(c6)C(=O)N(C6CCC(=O)NC6=O)C7=O)C5)C4)nc3)c(=O)c2c1 (stereo partly drawn)", "Dmax": "35 to 70%"}
{"compound": "N#Cc1c(NS(=O)(=O)N2CC[C@@H](F)C2)ccc(F)c1Oc1ccc2ncn(-c3ccc(C4CCC5(CC4)CCN(CC4CCN(c6ccc7c(c6)CN([C@H]6CCC(=O)NC6=O)C7=O)CC4)CC5)cc3)c(=O)c2c1", "Dmax": "≤ 35%"}
{"compound": "N#Cc1c(NS(=O)(=O)N2CC[C@@H](F)C2)ccc(F)c1Oc1ccc2ncn(-c3ccc(N4CCC(CN5CCC(c6ccc([C@@H]7CCC(=O)NC7=O)cc6F)CC5)CC4)cc3)c(=O)c2c1", "Dmax": "35 to 70%"}

Turning to the following compound.
Would you mind telling me what Dmax value was observed for N#Cc1c(NS(=O)(=O)N2CC[C@@H](F)C2)ccc(F)c1Oc1ccc2ncn(-c3ccc(C4CCN(CC5CN(c6ccc7c(c6Cl)CN([C@H]6CCC(=O)NC6=O)C7=O)C5)CC4)cc3)c(=O)c2c1 ?
35 to 70%
